Protein target, amino acids: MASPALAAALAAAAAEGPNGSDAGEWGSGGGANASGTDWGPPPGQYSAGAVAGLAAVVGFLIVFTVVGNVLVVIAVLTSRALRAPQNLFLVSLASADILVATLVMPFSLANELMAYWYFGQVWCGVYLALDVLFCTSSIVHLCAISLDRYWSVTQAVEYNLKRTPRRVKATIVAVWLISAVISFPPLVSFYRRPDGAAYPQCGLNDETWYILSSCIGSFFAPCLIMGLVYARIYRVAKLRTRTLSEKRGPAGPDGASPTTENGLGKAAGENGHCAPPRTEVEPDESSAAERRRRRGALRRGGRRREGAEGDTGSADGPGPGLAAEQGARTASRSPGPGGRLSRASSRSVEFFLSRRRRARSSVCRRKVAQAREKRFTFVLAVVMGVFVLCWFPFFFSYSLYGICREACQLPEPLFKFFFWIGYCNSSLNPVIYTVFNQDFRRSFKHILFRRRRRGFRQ

| Smiles String | Ki |
| --- | --- |
| COc1ccc(Br)c(N2CCN(CCN(C(=O)C3CCCCC3)c3ccccc3OC(F)(F)F)CC2)c1 | > 10 µM |
| COc1ccccc1N1CCN(CCN(C(=O)C2CCCCC2)c2ccccc2OC)CC1 | > 10 µM |
| COc1ccccc1N1CCN(CCN(C(=O)C2CCCCC2)c2ccccn2)CC1 | 1.26 µM |

----------
Molecular target: UniProtKB P35368
Sequence (P35368 whole entry): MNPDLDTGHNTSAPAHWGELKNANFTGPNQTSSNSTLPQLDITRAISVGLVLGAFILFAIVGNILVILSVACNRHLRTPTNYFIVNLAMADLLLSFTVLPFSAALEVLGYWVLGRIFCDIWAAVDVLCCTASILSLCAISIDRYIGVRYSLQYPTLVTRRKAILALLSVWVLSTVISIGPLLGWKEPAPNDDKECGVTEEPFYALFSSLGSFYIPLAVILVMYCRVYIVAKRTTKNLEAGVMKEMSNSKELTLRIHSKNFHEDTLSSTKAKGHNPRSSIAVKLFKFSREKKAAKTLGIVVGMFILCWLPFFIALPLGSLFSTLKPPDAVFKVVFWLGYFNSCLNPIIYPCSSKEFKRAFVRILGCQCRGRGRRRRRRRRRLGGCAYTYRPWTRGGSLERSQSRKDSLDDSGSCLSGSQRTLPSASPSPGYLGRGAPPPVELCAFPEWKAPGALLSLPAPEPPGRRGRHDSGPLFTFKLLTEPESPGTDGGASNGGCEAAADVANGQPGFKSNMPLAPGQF
pKi: −log10 of the molar value.

| Smiles String | pKi |
| --- | --- |
| COc1ccccc1N1CCN(CCN(C(=O)C2CCCCC2)c2ccccn2)CC1 | 6.18 |

----------
// pKi collected for D(2) dopamine receptor (Rattus norvegicus, UniProt P61169)
pKi: −log10 of the molar value.

| Molecule | pKi |
| --- | --- |
| COc1ccccc1N1CCN(CCN(C(=O)C2CCCCC2)c2ccccn2)CC1 | 6.46 |
| COc1ccccc1N1CCN(CCN(C(=O)C2CCCCC2)c2ccccc2[N+](=O)[O-])CC1 | 6.06 |
| COc1ccc(Br)c(N2CCN(CCN(C(=O)C3CCCCC3)c3ccccc3OC(F)(F)F)CC2)c1 [Rec 27/0224] | 5.32 |

----------
Target: Alpha-1A adrenergic receptor (Homo sapiens, UniProt P35348)
Sequence (P35348 whole entry): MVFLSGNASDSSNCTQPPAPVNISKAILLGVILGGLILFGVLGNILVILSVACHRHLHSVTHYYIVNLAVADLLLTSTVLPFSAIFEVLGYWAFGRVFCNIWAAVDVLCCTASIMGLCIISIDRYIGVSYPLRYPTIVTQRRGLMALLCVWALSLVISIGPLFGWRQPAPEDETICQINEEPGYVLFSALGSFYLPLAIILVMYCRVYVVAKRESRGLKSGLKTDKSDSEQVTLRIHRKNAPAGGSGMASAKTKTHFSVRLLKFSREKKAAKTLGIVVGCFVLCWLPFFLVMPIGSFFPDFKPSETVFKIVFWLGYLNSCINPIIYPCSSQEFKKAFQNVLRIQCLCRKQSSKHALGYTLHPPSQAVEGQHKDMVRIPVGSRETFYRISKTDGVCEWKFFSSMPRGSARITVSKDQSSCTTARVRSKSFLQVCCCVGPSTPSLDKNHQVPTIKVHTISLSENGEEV
pKi: −log10 of the molar value.

| Smiles String | pKi |
| --- | --- |
| COc1ccc(Br)c(N2CCN(CCN(C(=O)C3CCCCC3)c3ccccc3OC(F)(F)F)CC2)c1 | 6.65 |
| O=C(CCCN1CCC2(CC1)C(=O)NCN2c1ccccc1)c1ccc(F)cc1 | 7.69 |
